The measured values listed here are drawn from patent US10806794B2.

# assayed_system: CYP2D6 (Homo sapiens (Human), UniProt P10635)
# Sequence (P10635 whole entry): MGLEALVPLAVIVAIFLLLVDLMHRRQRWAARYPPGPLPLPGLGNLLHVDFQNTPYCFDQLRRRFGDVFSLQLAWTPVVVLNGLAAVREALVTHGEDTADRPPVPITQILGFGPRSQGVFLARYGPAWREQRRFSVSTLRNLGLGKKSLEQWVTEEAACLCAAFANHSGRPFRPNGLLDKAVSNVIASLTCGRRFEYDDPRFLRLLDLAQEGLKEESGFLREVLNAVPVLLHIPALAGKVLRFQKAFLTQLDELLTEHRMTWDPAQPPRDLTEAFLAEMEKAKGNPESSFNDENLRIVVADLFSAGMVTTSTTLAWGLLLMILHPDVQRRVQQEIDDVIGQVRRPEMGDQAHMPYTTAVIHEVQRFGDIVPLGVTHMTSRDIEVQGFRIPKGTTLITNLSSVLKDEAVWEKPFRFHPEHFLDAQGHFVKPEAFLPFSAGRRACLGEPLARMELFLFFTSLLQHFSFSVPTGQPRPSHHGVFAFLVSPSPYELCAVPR
# experiment_summary: Metabolic stability in CYP2D6-expressing Bactosomes
# Assay type: in vitro ADME
# condition_context: 5 μM
recorded_metric: 2D6 t1/2 ± SEM (min)

COCCOCCOCCOCCOCCOCCOCCNc1ccc(S(=O)(=O)N(CC(C)C)CC(O)[C@H](Cc2ccccc2)NC(=O)O[C@H]2CO[C@H]3OCC[C@H]32)cc1 (stereo partly shown)    29.1
COCCOCCOCCOCCOCCNc1ccc(S(=O)(=O)N(CC(C)C)CC(O)[C@H](Cc2ccccc2)NC(=O)O[C@H]2CO[C@H]3OCC[C@H]32)cc1 (stereo partly shown)    49.6
COCCOCCOCCOC(=O)N[C@@H](C(=O)NC(Cc1ccccc1)[C@@H](O)CN(Cc1ccc(-c2ccccn2)cc1)NC(=O)[C@H](NC(=O)OCCOCCOCCOC)C(C)(C)C)C(C)(C)C (stereo partly shown)    131
COCCOCCOCCNc1ccc(S(=O)(=O)N(CC(C)C)CC(O)[C@H](Cc2ccccc2)NC(=O)O[C@H]2CO[C@H]3OCC[C@H]32)cc1 (stereo partly shown)    68.4

----------
Reported IC50 by item:
# assayed_system: recombinant HIV-1 protease (Human immunodeficiency virus type 1 group M subtype B (isolate HXB2) (HIV-1), UniProt P04585)
# experiment_summary: Enzyme inhibition of purified HIV-1 protease (SensoLyte 520 HIV-Protease Assay Kit)
# Type: biochemical
# condition_context: read-out: IC50 ± SD
recorded_metric: IC50 (nM)

CCC(C1=C(O)CC(CCCNC(=O)OC)(CCc2ccccc2)OC1=O)c1cccc(NS(=O)(=O)c2ccc(C(F)(F)F)cn2)c1 (mixture of isomers)    0.292
COCCOCCOCCOCCOCCOCCOCCOC(=O)N[C@@H](C(=O)NC(Cc1ccccc1)[C@@H](O)CN(Cc1ccc(-c2ccccn2)cc1)NC(=O)[C@H](NC(=O)OCCOCCOCCOCCOCCOCCOCCOC)C(C)(C)C)C(C)(C)C (stereo partly drawn)    10.9
COCCOCCOCCOCCOCCOCCOC(=O)N[C@@H](C(=O)NC(Cc1ccccc1)[C@@H](O)CN(Cc1ccc(-c2ccccn2)cc1)NC(=O)[C@H](NC(=O)OCCOCCOCCOCCOCCOCCOC)C(C)(C)C)C(C)(C)C (stereo partly drawn)    15.6
COCCOCCOCCOCCOCCOC(=O)NC(C(=O)NC(Cc1ccccc1)C(O)CN(Cc1ccc(-c2ccccn2)cc1)NC(=O)C(NC(=O)OC)C(C)(C)C)C(C)(C)C (stereo not drawn)    2.91
COCCOCCOCCOCCOCCOC(=O)N[C@@H](C(=O)NC(Cc1ccccc1)[C@@H](O)CN(Cc1ccc(-c2ccccn2)cc1)NC(=O)[C@H](NC(=O)OCCOCCOCCOCCOCCOC)C(C)(C)C)C(C)(C)C (stereo partly drawn)    17.3
COCCOC(=O)NC(C(=O)NC(Cc1ccccc1)C(O)CN(Cc1ccc(-c2ccccn2)cc1)NC(=O)C(NC(=O)OC)C(C)(C)C)C(C)(C)C (stereo not drawn)    2.82
CCC(C1=C(O)CC(CCCNC(=O)OCCOC)(CCc2ccccc2)OC1=O)c1cccc(NS(=O)(=O)c2ccc(C(F)(F)F)cn2)c1 (mixture of isomers)    0.188
COCCOCCOCCOCCOCCOCCOC(=O)NC(C(=O)NC(Cc1ccccc1)C(O)CN(Cc1ccc(-c2ccccn2)cc1)NC(=O)C(NC(=O)OC)C(C)(C)C)C(C)(C)C (stereo not drawn)    1.31
CCC(C1=C(O)CC(CCCNC(=O)OCCOCCOCCOCCOCCOC)(CCc2ccccc2)OC1=O)c1cccc(NS(=O)(=O)c2ccc(C(F)(F)F)cn2)c1 (mixture of isomers)    0.462
